# Tested on: 313798-341-R-J2-PDC spheroids, viability
# RUN DESCRIPTION: Anticancer human tumor 313798-341-R-J2-PDC patient-derived cervical squamous cell carcinoma cell line growth inhibition [PI3K]
# PARTICULARS: curve of first compound; second compound 0.316 µM; spheroids with HUVEC and MSC
pIC50: −log10 of the molar value.
Below, each of the molecules is paired with its reported pIC50 value.

### Prompt Form field: reported pIC50 of CCN1CCN(Cc2ccc(Nc3ncc(F)c(-c4cc(F)c5nc(C)n(C(C)C)c5c4)n3)nc2)CC1 + CC(Nc1ncnc2nc[nH]c12)c1cc2cccc(Cl)c2c(=O)n1-c1ccccc1
### Response < 6.00

### Prompt Form field: reported pIC50 of C[C@@H](NC(=O)c1ncnc(N)c1Cl)c1ncc(C(=O)Nc2cc(C(F)(F)F)c(Cl)cn2)s1 + COc1c(OCCCN2CCOCC2)ccc2c3n(c(=NC(=O)c4cnc(N)nc4)nc12)CCN3
### Response > 7.50

### Prompt Form field: reported pIC50 of C#Cc1c(F)ccc2cc(O)cc(-c3ncc4c(N5CC6CCC(C5)N6)nc(OCC56CCCN5CC(F)C6)nc4c3F)c12 (stereo not given) + Cc1nc(NC(=O)N2CCCC2C(N)=O)sc1-c1ccnc(C(C)(C)C(F)(F)F)c1
### Response < 5.00

### Prompt Form field: reported pIC50 of Cn1cnc2c(F)c(Nc3ccc(Br)cc3Cl)c(C(=O)NOCCO)cc21 + CC(Nc1ccc2c(c1)OCCn1cc(N3C(=O)OCC3C(F)F)nc1-2)C(N)=O
### Response 7.58

### Prompt Form field: reported pIC50 of C[C@@H](NC(=O)c1ncnc(N)c1Cl)c1ncc(C(=O)Nc2cc(C(F)(F)F)c(Cl)cn2)s1 + CC(Nc1ncnc2nc[nH]c12)c1cc2cccc(Cl)c2c(=O)n1-c1ccccc1
### Response < 5.00

----------
# Tested on: 313798-341-R-J2-PDC spheroids, viability
# RUN DESCRIPTION: Anticancer human tumor 313798-341-R-J2-PDC cell line growth inhibition [PI3K];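 also: spheroids exposed to compounds for seven days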;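 as to viability, T/C: 100% = DMSO vehicle control viability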
# PARTICULARS: second compound 0.1 µM; first compound 0.1 µM; stronger effect = lower value; spheroids with HUVEC and MSC
Below, each of the compounds is paired with its reported viability, T/C value.
Give just the number in %; leave the unit off.

### Prompt Form field: reported viability, T/C of CC(Cn1ccc(-c2ccc(C#N)c(Cl)c2)n1)NC(=O)c1cc(C(C)O)[nH]n1 (stereo unspecified) + Cc1nc(NC(=O)N2CCCC2C(N)=O)sc1-c1ccnc(C(C)(C)C(F)(F)F)c1
### Response 109

### Prompt Form field: reported viability, T/C of CC(C)n1nc(-c2ccc3oc(N)nc3c2)c2c(N)ncnc21 + COc1c(OCCCN2CCOCC2)ccc2c3n(c(=NC(=O)c4cnc(N)nc4)nc12)CCN3
### Response 13.4

### Prompt Form field: reported viability, T/C of CCCS(=O)(=O)Nc1ccc(F)c(C(=O)c2c[nH]c3ncc(-c4ccc(Cl)cc4)cc23)c1F + COc1c(OCCCN2CCOCC2)ccc2c3n(c(=NC(=O)c4cnc(N)nc4)nc12)CCN3
### Response 54.2

----------
# Tested on: 313798-341-R-J2-PDC spheroids, viability
# RUN DESCRIPTION: Anticancer human tumor 313798-341-R-J2-PDC cell line growth inhibition [PI3K];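 also: spheroids exposed to compounds for seven days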;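 as to viability, T/C: 100% = DMSO vehicle control viability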
# PARTICULARS: second compound 10 µM; first compound 0.1 µM; stronger effect = lower value; spheroids with HUVEC and MSC
REPORTED METRIC: viability, T/C (%)
Give just the number in %; leave the unit off.

Answered cases to consult:
[
  {
    "MOLECULE": "CC(C)n1nc(-c2ccc3oc(N)nc3c2)c2c(N)ncnc21 + Cc1nc(NC(=O)N2CCCC2C(N)=O)sc1-c1ccnc(C(C)(C)C(F)(F)F)c1",
    "UNIT NAME": "%",
    "VAL": 14.4
  },
  {
    "MOLECULE": "CC(=O)c1c(C)c2cnc(Nc3ccc(N4CCNCC4)cn3)nc2n(C2CCCC2)c1=O + CC(Nc1ncnc2nc[nH]c12)c1cc2cccc(Cl)c2c(=O)n1-c1ccccc1",
    "UNIT NAME": "%",
    "VAL": 87.5
  }
]

Next molecule, please.
### Prompt Form field: reported viability, T/C of Cn1nccc1Nc1nccc(-c2ccn(C(CO)c3ccc(Cl)c(F)c3)c(=O)c2)n1 (stereo not drawn) + Cc1nc(NC(=O)N2CCCC2C(N)=O)sc1-c1ccnc(C(C)(C)C(F)(F)F)c1
### Response 22.1
